// data source = ChEMBL document CHEMBL1759935

- test name: Intrinsic clearance in mouse liver microsomes in presence of UGT
- Assay type: ADME, Microsome
experimental endpoint: microsomal CLint

• O=C(c1ccc(OCCN2CCCCC2)cc1)c1c(-c2ccc(O)cc2)sc2cc(O)ccc12 = < 6 µL/min/mg
• COc1ccc(OC(F)(F)F)cc1Cn1c(C(=O)NCC(C)(C)CO)cc2cc(C#N)ccc21 = < 6 µL/min/mg
• Cc1ccc(C(F)(F)F)cc1Cn1c(C(=O)NCCC(C)(C)O)cc2cc(C#N)ccc21 = < 6 µL/min/mg

---

Some compounds, each annotated with its measured microsomal CLint.
- test name: Intrinsic clearance in rat liver microsomes in presence of UGT
- Format: ADME, Microsome
experimental endpoint: microsomal CLint (µL/min/mg)

• O=C(c1ccc(OCCN2CCCCC2)cc1)c1c(-c2ccc(O)cc2)sc2cc(O)ccc12 [RALOXIFENE] = 11
• COc1ccc(OC(F)(F)F)cc1Cn1c(C(=O)NCC(C)(C)CO)cc2cc(C#N)ccc21 = 191

---

- test name: Intrinsic clearance in human liver microsomes in presence of UGT
- Type: ADME, Microsome
Some compounds, each annotated with its measured microsomal CLint.
experimental endpoint: microsomal CLint (µL/min/mg)

• COc1ccc(OC(F)(F)F)cc1Cn1c(C(=O)NCC(C)(C)CO)cc2cc(C#N)ccc21 = 31
• CCCOc1cccc(Cn2c(C(=O)NCC(C)(C)CO)cc3cc(C#N)ccc32)c1 = 10
• Cc1ccc(C(F)(F)F)cc1Cn1c(C(=O)NCC(C)(C)CO)cc2cc(C#N)ccc21 = 16
• CC(C)(CO)CNC(=O)c1cc2cc(C#N)ccc2n1Cc1cccc(OC(F)(F)F)c1 = 20
• COc1ccc(Cl)cc1Cn1c(C(=O)NCC2(CO)CCC2)cc2cc(C#N)ccc21 = 34
• N#Cc1ccc2c(c1)cc(C(=O)NCCC(O)C(F)(F)F)n2Cc1cccc(OC(F)(F)F)c1 (centres undefined) = 31
• Cc1ccc(F)cc1Cn1c(C(=O)NCC2(CO)CCC2)cc2cc(C#N)ccc21 = 49

---

Some compounds, each annotated with its measured microsomal CLint.
- test name: Intrinsic clearance in human liver microsomes in presence of NADPH
- Type: ADME, Microsome
experimental endpoint: microsomal CLint (µL/min/mg)

• COc1ccc(OC(F)(F)F)cc1Cn1c(C(=O)NCC(C)(C)CO)cc2cc(C#N)ccc21 = 69
• CCOc1ccc(OC(F)(F)F)cc1Cn1c(C(=O)NCC(C)(C)CO)cc2cc(C#N)ccc21 = 103
• COc1ccc(Cl)cc1Cn1c(C(=O)NCC2(CO)CCC2)cc2cc(C#N)ccc21 = 196
• Cc1c(C(=O)NN2CCCCC2)nn(-c2ccc(Cl)cc2Cl)c1-c1ccc(Cl)cc1 [RIMONABANT] = 69
• Cc1ccc(F)cc1Cn1c(C(=O)NCC2(CO)CCC2)cc2cc(C#N)ccc21 = 190

---

- assay target: Cannabinoid receptor 1 (Homo sapiens)
- Sequence (P21554 whole entry): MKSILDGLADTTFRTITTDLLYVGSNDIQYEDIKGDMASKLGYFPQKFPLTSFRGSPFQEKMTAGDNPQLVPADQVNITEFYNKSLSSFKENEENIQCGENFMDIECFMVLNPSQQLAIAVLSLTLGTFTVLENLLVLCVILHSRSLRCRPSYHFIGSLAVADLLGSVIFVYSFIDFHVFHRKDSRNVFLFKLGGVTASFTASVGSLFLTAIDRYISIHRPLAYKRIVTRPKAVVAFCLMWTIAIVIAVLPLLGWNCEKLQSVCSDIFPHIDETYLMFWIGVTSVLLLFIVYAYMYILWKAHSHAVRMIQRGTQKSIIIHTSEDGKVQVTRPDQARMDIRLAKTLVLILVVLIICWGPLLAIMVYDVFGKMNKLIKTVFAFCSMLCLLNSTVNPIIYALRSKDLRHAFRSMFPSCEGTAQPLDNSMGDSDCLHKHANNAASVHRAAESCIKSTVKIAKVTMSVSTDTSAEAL
- test name: biochemical
- Assay type: cell-based, CHO
experimental endpoint: Ki (nM)

- Cc1ccc(C(F)(F)F)cc1Cn1c(C(=O)NCCC(C)(C)O)cc2cc(C#N)ccc21: 4.37
- COc1ccc(OC(F)(F)F)cc1Cn1c(C(=O)NCC(C)(C)CO)cc2cc(C#N)ccc21: 0.398
- CC(C)(CO)CNC(=O)c1cc2cc(C#N)ccc2n1Cc1cccc(OC(F)(F)F)c1: 0.794
- CC(C)(O)CCNC(=O)c1cc2cc(C#N)ccc2n1Cc1cccc(OC(F)(F)F)c1: 5.01
- COc1ccc(OC(F)(F)F)cc1Cn1c(C(=O)NCC(C)(C)O)cc2cc(C#N)ccc21: 5.5
- COc1ccc(C(F)(F)F)cc1Cn1c(C(=O)NCC(C)(C)O)cc2cc(C#N)ccc21: 7.59
